Measured values drawn from PubChem BioAssay AID2016 for this set.

# assay: TOR pathway GLN3 branch reporter MEP2-GFP changes – S. cerevisiae, multiplex flow cytometry, MLPCN library, primary screen (AID 2016);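 also: median GFP fluorescence of the barcode-gated MEP2-GFP cells per well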
# setup conditions: S. cerevisiae MEP2-GFP strain, 3 h, at 10 µM, 100% = DMSO control level
Out of some 330,000 compounds screened, about 1,700 (0.52%) were called active.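 The calls were made as follows: active = GFP response versus DMSO above a set limit, roughly screen mean plus 3 SD (cut at about 180% in these data); inconclusive = fewer than 70 cells counted for a yeast strain; inactive = the rest.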 The full list was thinned out, with actives kept by preference.
Answer with one of the outcomes given here: active, inactive

Short answer needed: outcome of this test for CCOc1ccc(CN(C)C(=O)c2ccc(=O)[nH]c2)cc1 ?
inactive

Short answer needed: outcome of this test for CCOC(=O)c1cnc(SCC(=O)Nc2cccc(OC)c2)nc1N ?
inactive

Short answer needed: outcome of this test for O=C(Nc1ccc(F)cc1)C1CCCN(S(=O)(=O)c2ccc(-n3cnnn3)cc2)C1 (centres undefined) ?
inactive

Short answer needed: outcome of this test for CCOC(=O)c1sc2nc(C)nc(SCC(N)=O)c2c1C ?
inactive

Short answer needed: outcome of this test for O=C(Nc1ccccc1Cl)N1CCN(c2ccc3nncn3n2)CC1 ?
inactive

Short answer needed: outcome of this test for CC(C)(C)NC(=O)C(c1ccc(Cl)cc1)N(CCO)C(=O)c1snc(C(N)=O)c1N (centres undefined) ?
inactive

Short answer needed: outcome of this test for C#CCOCCOCCOCCNc1nc(N2CCN(C(=O)C(Cc3ccc(O)cc3)n3cc(C(N)CC(C)C)nn3)CC2)nc(N2CCN(C(=O)C(Cc3ccc(O)cc3)n3cc(C(N)C(C)CC)nn3)CC2)n1 (centres undefined) ?
inactive

Short answer needed: outcome of this test for CCC(=C/c1sc2ccc3ccccc3c2[n+]1C)/C=C1\Sc2ccc3ccccc3c2N1C ?
active

Short answer needed: outcome of this test for COc1ccccc1C(=O)NCC(=O)OCC(=O)Nc1nnc(-c2ccccc2)o1 ?
inactive

Short answer needed: outcome of this test for COc1ccc(C(=O)NC(=S)NNC(=O)c2c(-c3ccccc3)noc2C)cc1 ?
inactive

Short answer needed: outcome of this test for CCc1noc(C)c1C(=O)NNC(=O)c1ccc(F)cc1 ?
inactive

Short answer needed: outcome of this test for CCOC(=O)c1c(CN(C)C)n(-c2ccccc2)c2cc(Br)c(O)cc12 ?
inactive

Short answer needed: outcome of this test for CCOC(=O)C(C)n1cnc2c(nnn2-c2ccc(F)cc2)c1=O (centres undefined) ?
inactive

Short answer needed: outcome of this test for CCOC(=O)N1CCN(C(=O)COc2ccc(Br)cc2)CC1 ?
inactive

Short answer needed: outcome of this test for COc1ccc(OCc2ccc(-c3nc4ccccc4c(=O)n3N)o2)cc1 ?
active

Short answer needed: outcome of this test for O=C(NCC1CCCO1)/C(=C\c1ccco1)NC(=O)c1ccccc1 (centres undefined) ?
inactive

Short answer needed: outcome of this test for CCSc1sc(CC)cc1C=O ?
active

Short answer needed: outcome of this test for Cn1c(=O)n(C)c(=O)n(CC(=O)N2CCCCC2)c1=O ?
inactive

Short answer needed: outcome of this test for Brc1ccccc1C1Nc2cccc3cccc(c23)N1 ?
inactive
